# protocol_text: NCI Yeast Anticancer Drug Screen. Data for the rad14 strain (AID 159);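 further: 0% = growth of vehicle-treated control cultures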
# recorded_conditions: S. cerevisiae rad14 strain growth inhibition; at 1.2 µM; active compounds read high
This is part of a sample that, as a whole, favours compounds with a hit. Of some 79,000 tested, about 15% had one in any assay.
recorded_endpoint: growth inhibition (%)

# molecule, recorded_endpoint, measured
data = [
    ("O=c1oc(C(C(F)(F)F)C(F)(F)F)nc2ccccc12", "growth inhibition", 16),
    ("Cc1ccc(N(C=O)c2c([N+](=O)[O-])cc([N+](=O)[O-])c3c2=[N+]([O-])CN=3)cc1", "growth inhibition", -15),
    ("O=C1c2ccccc2-c2ccc(NC(=O)C3CCCCC3C(=O)O)cc21 (centres undefined)", "growth inhibition", -2),
    ("Cc1ccc(P(c2ccc(C)cc2)c2ccc(C)cc2)cc1", "growth inhibition", -34),
]
